# SYSTEM: human A1 AR (Homo sapiens, UniProt P30542)
# Construct: expressed in transfected cells
# Sequence (P30542 whole entry): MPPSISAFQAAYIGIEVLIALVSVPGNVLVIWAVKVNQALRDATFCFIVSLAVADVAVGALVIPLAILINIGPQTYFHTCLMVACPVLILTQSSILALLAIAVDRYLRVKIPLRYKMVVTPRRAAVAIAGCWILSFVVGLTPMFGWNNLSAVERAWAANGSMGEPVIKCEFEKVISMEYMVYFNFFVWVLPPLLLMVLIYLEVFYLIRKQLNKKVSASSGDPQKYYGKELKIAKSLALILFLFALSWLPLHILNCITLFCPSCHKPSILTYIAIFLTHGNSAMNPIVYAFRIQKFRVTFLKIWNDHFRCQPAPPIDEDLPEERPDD
# TEST_DETAILS: Radioligand binding at human A1 AR ([3H]NECA, membranes of CHO cells)
PROPERTY_NAME: inhibition at 10 µM (%)
Respond numerically; units are % and should not be typed.

Q) So what does the record say about inhibition at 10 µM for `CNC(=O)[C@@]12C[C@@H]1[C@@H](n1cnc3c(NCc4cccc(Cl)c4)nc(C#CCCCCc4cn(CCNC(C)=O)nn4)nc31)[C@H](O)[C@@H]2O` ?
A) 12

Q) So what does the record say about inhibition at 10 µM for CNC(=O)[C@@]12C[C@@H]1[C@@H](n1cnc3c(NCc4cn(-c5ccc(F)c([N+](=O)[O-])c5)nn4)nc(Cl)nc31)[C@H](O)[C@@H]2O [Compound 219a] ?
A) 38

Q) So what does the record say about inhibition at 10 µM for `CNC(=O)[C@@]12C[C@@H]1[C@@H](n1cnc3c(NCc4cccc(Cl)c4)nc(C#CCCCCc4cn(CCCCNC(C)=O)nn4)nc31)[C@H](O)[C@@H]2O` ?
A) 17

Q) So what does the record say about inhibition at 10 µM for `O=[N+]([O-])c1cc(-n2cc(CCCC#Cc3cccc(CNc4nc(Cl)nc5c4ncn5[C@H]4[C@H](O)[C@H](O)[C@@H]5C[C@@H]54)c3)nn2)ccc1F` ?
A) 11

Q) So what does the record say about inhibition at 10 µM for `C#CCCCCCC#Cc1cccc(CNc2nc(Cl)nc3c2ncn3[C@H]2[C@H](O)[C@H](O)[C@]3(C(=O)NC)C[C@H]23)c1` ?
A) 47.7

* * *

For each record, write down the corresponding Ki.
# SYSTEM: human A3AR (Homo sapiens)
# Construct: expressed in transfected cells
# Sequence (P0DMS8 whole entry): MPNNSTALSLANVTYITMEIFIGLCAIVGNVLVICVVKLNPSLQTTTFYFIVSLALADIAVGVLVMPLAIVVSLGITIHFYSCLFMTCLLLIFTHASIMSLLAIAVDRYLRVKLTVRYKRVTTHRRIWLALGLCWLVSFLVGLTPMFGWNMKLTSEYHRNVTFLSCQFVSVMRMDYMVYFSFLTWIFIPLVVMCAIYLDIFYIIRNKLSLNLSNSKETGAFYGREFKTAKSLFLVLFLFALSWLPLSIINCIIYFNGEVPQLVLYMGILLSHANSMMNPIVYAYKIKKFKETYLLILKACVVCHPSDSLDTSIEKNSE
# TEST_DETAILS: Radioligand binding at human A3 AR ([125I]I-AB-MECA, membranes of CHO cells)
# TEST_CONTEXT: Example 7; agonist radioligand [125I]47; read-out: AR Affinity Ki, nM, A3
Respond numerically; units are nM and should not be typed.

Q) So what does the record say about Ki for C#CCCCCC#Cc1cccc(CNc2nc(Cl)nc3c2ncn3[C@H]2[C@H](O)[C@H](O)[C@@H]3C[C@@H]32)c1 [Compound 212] ?
A) 2500

Q) So what does the record say about Ki for C#CCCCC#Cc1cccc(CNc2nc(Cl)nc3c2ncn3[C@H]2[C@H](O)[C@H](O)[C@]3(C(=O)NC)C[C@H]23)c1 [Compound 200] ?
A) 8.1

Q) So what does the record say about Ki for CNC(=O)[C@@]12C[C@@H]1[C@@H](n1cnc3c(NCc4cn(-c5ccc(F)c([N+](=O)[O-])c5)nn4)nc(Cl)nc31)[C@H](O)[C@@H]2O [Compound 219a] ?
A) 9.1

* * *

# SYSTEM: human A1 AR (Homo sapiens)
# Construct: expressed in transfected cells
# TEST_DETAILS: Radioligand binding at human A1 AR ([3H]NECA, membranes of CHO cells)
Please use label 1 whenever inhibition at 10 µM is not below 10%, and label 0 whenever it is.

Q) I'd appreciate it if you could say whether `CNC(=O)[C@@]12C[C@@H]1[C@@H](n1cnc3c(NCc4cccc(Cl)c4)nc(C#CCCCCc4cn(CCCCN)nn4)nc31)[C@H](O)[C@@H]2O` has inhibition at 10 µM at least equal to 10%.
A) label 1

Q) I'd appreciate it if you could say whether `CNC(=O)[C@@]12C[C@@H]1[C@@H](n1cnc3c(NCc4cccc(Cl)c4)nc(C#CCCCCc4cn(C56CC7CC(CC(C7)C5)C6)nn4)nc31)[C@H](O)[C@@H]2O` has inhibition at 10 µM at least equal to 10%.
A) label 1

Q) I'd appreciate it if you could say whether `CNC(=O)[C@@]12C[C@@H]1[C@@H](n1cnc3c(NCc4cccc(Cl)c4)nc(C#CCCCCc4cn(-c5ccc(N=C=S)cc5)nn4)nc31)[C@H](O)[C@@H]2O` has inhibition at 10 µM at least equal to 10%.
A) label 0

Q) I'd appreciate it if you could say whether `CNC(=O)[C@@]12C[C@@H]1[C@@H](n1cnc3c(NCc4cn(C56CC7CC(CC(C7)C5)C6)nn4)nc(Cl)nc31)[C@H](O)[C@@H]2O` has inhibition at 10 µM at least equal to 10%.
A) label 1

Q) I'd appreciate it if you could say whether `CNC(=O)[C@@]12C[C@@H]1[C@@H](n1cnc3c(NCc4cccc(Cl)c4)nc(C#CCCCCc4cn(CCCCCCNC(=O)CCCC[C@@H]5SC[C@@H]6NC(=O)N[C@@H]65)nn4)nc31)[C@H](O)[C@@H]2O` has inhibition at 10 µM at least equal to 10%.
A) label 0

Q) I'd appreciate it if you could say whether `C#CCCCCC#Cc1cccc(CNc2nc(Cl)nc3c2ncn3[C@H]2[C@H](O)[C@H](O)[C@@H]3C[C@@H]32)c1` has inhibition at 10 µM at least equal to 10%.
A) label 1

Q) I'd appreciate it if you could say whether `CNC(=O)[C@@]12C[C@@H]1[C@@H](n1cnc3c(NCc4cccc(Cl)c4)nc(C#CCCCCc4cn(-c5ccc(C(=O)O)cc5)nn4)nc31)[C@H](O)[C@@H]2O` has inhibition at 10 µM at least equal to 10%.
A) label 0

Q) I'd appreciate it if you could say whether `O=[N+]([O-])c1cc(-n2cc(CCCCCC#Cc3cccc(CNc4nc(Cl)nc5c4ncn5[C@H]4[C@H](O)[C@H](O)[C@@H]5C[C@@H]54)c3)nn2)ccc1F` has inhibition at 10 µM at least equal to 10%.
A) label 1

Q) I'd appreciate it if you could say whether `CNC(=O)[C@@]12C[C@@H]1[C@@H](n1cnc3c(NCc4cccc(Cl)c4)nc(C#CCCCCc4cn(Cc5ccc(-n6sccc6=O)cc5)nn4)nc31)[C@H](O)[C@@H]2O` has inhibition at 10 µM at least equal to 10%.
A) label 1

Q) I'd appreciate it if you could say whether `O=[N+]([O-])c1cc(-n2cc(CNc3nc(Cl)nc4c3ncn4[C@H]3[C@H](O)[C@H](O)[C@@H]4C[C@@H]43)nn2)ccc1F` has inhibition at 10 µM at least equal to 10%.
A) label 1

Q) I'd appreciate it if you could say whether `CNC(=O)[C@@]12C[C@@H]1[C@@H](n1cnc3c(NCc4cccc(Cl)c4)nc(C#CCCCCc4cn(-c5ccc(C(=O)CBr)cc5)nn4)nc31)[C@H](O)[C@@H]2O` has inhibition at 10 µM at least equal to 10%.
A) label 1

* * *

# SYSTEM: hA2AAR (Homo sapiens, UniProt P29274)
# Construct: expressed in transfected cells
# Sequence (P29274 whole entry): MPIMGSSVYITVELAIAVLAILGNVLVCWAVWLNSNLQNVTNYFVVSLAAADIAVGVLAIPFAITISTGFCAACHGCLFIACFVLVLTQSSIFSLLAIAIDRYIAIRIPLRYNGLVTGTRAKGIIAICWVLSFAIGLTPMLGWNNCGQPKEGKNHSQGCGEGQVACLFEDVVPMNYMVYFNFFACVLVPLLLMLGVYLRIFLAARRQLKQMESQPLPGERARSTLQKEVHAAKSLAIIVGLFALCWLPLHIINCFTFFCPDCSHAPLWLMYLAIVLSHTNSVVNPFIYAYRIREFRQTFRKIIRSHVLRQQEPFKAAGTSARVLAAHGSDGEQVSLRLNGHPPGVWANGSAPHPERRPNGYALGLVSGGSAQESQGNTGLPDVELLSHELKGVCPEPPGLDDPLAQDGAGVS
# TEST_DETAILS: Radioligand binding at human A2A AR ([3H]CGS21680, membranes of HEK-293 cells)
# TEST_CONTEXT: [3H]37; HEK293 cells; read-out: Affinity (Ki, nM), A2A
For each record, write down the corresponding Ki.
Respond numerically; units are nM and should not be typed.

Q) Form entry - test system: hA2AAR (Homo sapiens, UniProt P29274); read-out: Ki; molecule: C#CCCCCC#Cc1nc(NCc2cccc(Cl)c2)c2ncn(C3C(O)C(O)C4(C(=O)NC)CC34)c2n1 (stereo not drawn)
A) 7040

Q) Form entry - test system: hA2AAR (Homo sapiens, UniProt P29274); read-out: Ki; molecule: `CNC(=O)[C@@]12C[C@@H]1[C@@H](n1cnc3c(NCc4cccc(Cl)c4)nc(C#CCCCCc4cn(-c5ccc(N)cc5)nn4)nc31)[C@H](O)[C@@H]2O`
A) 5490

Q) Form entry - test system: hA2AAR (Homo sapiens, UniProt P29274); read-out: Ki; molecule: C#CCCCC#Cc1nc(NCc2cccc(Cl)c2)c2ncn(C3C(O)C(O)C4(C(=O)NC)CC34)c2n1 (stereo not drawn)
A) 4330

Q) Form entry - test system: hA2AAR (Homo sapiens, UniProt P29274); read-out: Ki; molecule: `CNC(=O)[C@@]12C[C@@H]1[C@@H](n1cnc3c(NCc4cccc(Cl)c4)nc(C#CCCCCc4cn(-c5ccc(F)c([N+](=O)[O-])c5)nn4)nc31)[C@H](O)[C@@H]2O`
A) 6730

Q) Form entry - test system: hA2AAR (Homo sapiens, UniProt P29274); read-out: Ki; molecule: `CNC(=O)[C@@]12C[C@@H]1[C@@H](n1cnc3c(NCc4cccc(Cl)c4)nc(C#CCCCCc4cn(CCCCNC(C)=O)nn4)nc31)[C@H](O)[C@@H]2O`
A) 7240

Q) Form entry - test system: hA2AAR (Homo sapiens, UniProt P29274); read-out: Ki; molecule: `CNC(=O)[C@@]12C[C@@H]1[C@@H](n1cnc3c(NCc4cccc(Cl)c4)nc(C#CCCCCc4cn(CCCCN)nn4)nc31)[C@H](O)[C@@H]2O`
A) 1630

Q) Form entry - test system: hA2AAR (Homo sapiens, UniProt P29274); read-out: Ki; molecule: `CNC(=O)[C@@]12C[C@@H]1[C@@H](n1cnc3c(NCc4cccc(Cl)c4)nc(C#CCCCCc4cn(-c5ccc(C(=O)CBr)cc5)nn4)nc31)[C@H](O)[C@@H]2O`
A) 5740

Q) Form entry - test system: hA2AAR (Homo sapiens, UniProt P29274); read-out: Ki; molecule: `CNC(=O)[C@@]12C[C@@H]1[C@@H](n1cnc3c(NCc4cccc(Cl)c4)nc(C#CCCCCc4cn(C56CC7CC(CC(C7)C5)C6)nn4)nc31)[C@H](O)[C@@H]2O`
A) 3280

Q) Form entry - test system: hA2AAR (Homo sapiens, UniProt P29274); read-out: Ki; molecule: `CNC(=O)[C@@]12C[C@@H]1[C@@H](n1cnc3c(NCc4cccc(Cl)c4)nc(C#CCCCCc4cn(CCNC(C)=O)nn4)nc31)[C@H](O)[C@@H]2O`
A) 2440
